- Tested on: MALME-3M melanoma
- experimentNotes: NCI-60 one-dose screen, 48 h (100 = growth as untreated, 0 = no growth, -100 = all killed)
- conditionInfo: 10 µM unless noted
The panel holds about 83,000 compounds, 20% with a hit somewhere; the sample as a whole holds those more often.
Binary label based on growth with cut-off 90%: below gives y, not below gives n.

molecule=Cc1c(F)cccc1NC(=O)c1sc2nc3c(cc2c1N)CCCCC3 class=y
molecule=Clc1ccc2c(NCCNc3nc(Cl)nc4ccccc34)ccnc2c1 class=y
molecule=O=C(O)c1ccc2nc(-c3ccc(OCCCCCOc4ccc(-c5nc6ccc(C(=O)O)cc6[nH]5)cc4)cc3)[nH]c2c1 class=n
molecule="CC(=O)N1N=C(CCC(=O)c2nc3ccc([N+](=O)[O-])cc3[nH]2)OC1c1ccc(O)cc1 (stereo not given)" class=n
molecule=COc1ccc(OC)c(NCC(=O)n2nc(/C=C\c3ccc(O)c(OC)c3)cc2/C=C\c2ccc(O)c(OC)c2)c1 class=y
molecule="Cc1cn([C@]2(CF)O[C@H](CO)C2C)c(=O)[nH]c1=O (stereo not given in full)" class=n
molecule=O=C1C(SCCO)=C(SCCO)C(=O)N1c1ccc(-c2ccccc2)cc1 class=y
molecule=CCCCCCCCCCCC(=O)OCCNC(=O)C[n+]1ccccc1 class=n
